B1: LINE1-mini (parent)
chain: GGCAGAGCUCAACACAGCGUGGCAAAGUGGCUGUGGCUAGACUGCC

# Variants of: B1
# test: self-cleavage, relative activity (ratio to wild type); higher = more cleavage; in vitro, sequencing; the parent is a self-cleaving ribozyme
As shown below, each of these variants has a reported self-cleavage value.
measurement_kind: self-cleavage

INSERT INTO results (polymer_sequence, val) VALUES
  ('GGCAGAGCUCGACACAGCGUGGCAAAUUGGCUGUGGCUAGACUGCC', 0.03),
  ('GGCUGGGCUCAACACAGCGUGGCAAAGUGGCUGUGGCUAGACUGCC', 0.16),
  ('GGCAGAGCACAACACAGCGUGGCCAAGUGGCUGUGGCUAGACUGCC', 0.56),
  ('GGCAGAGCUCAACACAGCGUGGCAAAGUGGCUGUGGUUAGGCUGCC', 0.04),
  ('GGCAGAGCUCAACACAGCGUGGCAAAGUGCCUGUGGCUAGGCUGCC', 0.21),
  ('GGCAGACCUCAACACAGCGUGGCAAGGUGGCUGUGGCUAGACUGCC', 0.11),
  ('GGUAGAGCUCAACACAGCGUGGCAAAGUGGAUGUGGCUAGACUGCC', 0.07),
  ('GGCAGAGUUCAACACAGCGUGGCAAAGUGGCUGUAGCUAGACUGCC', 0.32),
  ('GGCAGAGCUCAACACAGCGUGGCAAUGUGGCUGUGCCUAGACUGCC', 0.13),
  ('GGCAGAGCUCAACGCAGCGUGGCAAAGUGGCUGUGGCAAGACUGCC', 0.52),
  ('GGCAGAGCUCAACACAGCGUGGCAAGGUGGCUGUGGGUAGACUGCC', 0.03),
  ('GGCAGAGCUCAACACAGCGUGGCAAUGUGGCUGUGGCUAGGCUGCC', 0.37),
  ('GGCAGAGCUCAACACGGCGUGGCAAAGUGGCUGUGGCUAGACUGUC', 0.45),
  ('GGCAGAGCUUAACACAGCGUGGCAAAGUGGCUGUGGCCAGACUGCC', 0.17),
  ('GGCAGAGGUCAACACAGCGUGGCAAAGUGGCUGUGCCUAGACUGCC', 0.08),
  ('GGCAGAGCUCAACACAGCGUGGCAGAGUGGCUGUGGCUAGACUACC', 0.21),
  ('GGCAGAGCUCAACACAGAGUGGCAAAGUGGCUGUGGCUAGAAUGCC', 0.12),
  ('GGCAGGGCUCAAAACAGCGUGGCAAAGUGGCUGUGGCUAGACUGCC', 0.19),
  ('GGCAGAGCUCAACACAGCGUGCCAAAGUGGCUGUGCCUAGACUGCC', 0.25),
  ('GGCAGAGCUCAACACAGCGGGGCAAAGUUGCUGUGGCUAGACUGCC', 0.48),
  ('GGCAGAGCUCAACACAGCGUGGCUAAGUGGUUGUGGCUAGACUGCC', 0.25),
  ('GGCAGACCUUAACACAGCGUGGCAAAGUGGCUGUGGCUAGACUGCC', 0.04);

Source of measurements: the RNAGym collection of RNA variant scans (doi:10.7554/elife.90254)
